Molecular target: T1, human CCR8 (human, UniProt P51685 1-355)
T1 construct: Native CCR8 on human PBMC (CCR8+ CD3+ or CCR8+ CD4+ lymphocytes); also called chemokine (C-C motif) receptor 8
T1 sequence (P51685 whole entry): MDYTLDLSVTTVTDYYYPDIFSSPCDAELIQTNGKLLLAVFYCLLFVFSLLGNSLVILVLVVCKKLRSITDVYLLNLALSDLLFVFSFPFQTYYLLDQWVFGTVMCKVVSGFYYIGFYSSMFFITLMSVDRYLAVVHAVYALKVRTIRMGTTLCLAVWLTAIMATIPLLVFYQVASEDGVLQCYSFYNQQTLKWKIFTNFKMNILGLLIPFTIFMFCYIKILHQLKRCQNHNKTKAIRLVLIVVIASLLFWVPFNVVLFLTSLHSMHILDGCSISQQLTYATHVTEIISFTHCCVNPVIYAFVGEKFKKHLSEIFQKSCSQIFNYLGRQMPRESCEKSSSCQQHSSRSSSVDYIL
Test: flow blocking, PBMC CCR8+CD4+; competitor PE-AB3
Description: For blocking studies, 100 μL of the cell suspension were incubated with 10 μg purified isotype control, AB1, AB2, AB3, AB4, AB5, AB8, AB9, AB10, AB11, AB12, AB13, AB14, AB15, and Commercial ABI antibodies, or isotype control, as blocking agents. […]
RECORDED_ENDPOINT: % Positive cells (%)
Give the value in % but do not write % after it.

BINDER: AB1 (antibody, V domains shown, Hybridoma monoclonal (mouse or rat); Same VH/VL entries as AB2; also called antibody 1; clone 1) VH: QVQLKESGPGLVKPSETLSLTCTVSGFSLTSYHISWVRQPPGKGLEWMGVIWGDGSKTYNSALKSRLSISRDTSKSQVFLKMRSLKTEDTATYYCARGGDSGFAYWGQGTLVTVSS VL: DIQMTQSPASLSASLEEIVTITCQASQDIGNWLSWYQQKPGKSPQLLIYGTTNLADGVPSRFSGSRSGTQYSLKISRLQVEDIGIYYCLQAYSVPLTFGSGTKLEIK
RECORDED_ENDPOINT: % Positive cells
UNIT_SYMBOL: %
MEASURED: 0.05

Turning to the following binder.
Requested field: % Positive cells. Item: AB5 (antibody, V domains shown, Hybridoma monoclonal; Same VH/VL entries as AB6; also called antibody 5; clone 5) VH: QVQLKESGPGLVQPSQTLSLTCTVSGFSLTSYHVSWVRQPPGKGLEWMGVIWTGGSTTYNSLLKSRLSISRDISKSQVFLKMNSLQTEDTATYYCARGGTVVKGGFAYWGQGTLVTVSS VL: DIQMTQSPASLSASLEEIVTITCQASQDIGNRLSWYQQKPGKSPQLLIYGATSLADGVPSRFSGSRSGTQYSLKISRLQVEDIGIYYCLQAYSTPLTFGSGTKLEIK
0.07
